Target: T1, AAV9 (adeno-associated virus serotype 9)
T1 construct: also called adeno-associated virus serotype 9
Experiment: SPR, AAV on CM5 chip
pKd: −log10 of the molar value.
Everything with pKd lower than 6 is 0.0; everything else, including exactly 6, is 1.0.

{"columns": ["Binder", "Qualitative label"],
 "data": [
  ["A4-H3 (VHH) VHH: VQLQASGGGFVQPGGSLRLSCAASGSIFSINLMGWFRQAPGKERELVAVITPGGNTYYADSVKGRFTISRDNSKNTVYLQMNSLRAEDTATYYCHVDEVRQSSWTTSNLWGQGTQVTVSS", 1.0],
  ["A4-H4 (VHH) VHH: VQLVESGGGLVQPGGSLRLSCAASGSIFSINLMGWFRQAPGKGLELVAIITPGGNTYYADSVKGRFTISRDNSKNTVYLQMNSLRAEDTAVYYCHVDEVRQSSWTTSNLWGQGTLVTVSS", 1.0],
  ["A4-H5 (VHH) VHH: VQLQASGGGFVQPGGSLRLSCAASGRGFSINTMGWFRQAPGKERELVAVVTRGGTTYYADSVKGRFTISRDNSKNTVYLQMNSLRAEDTAVYYCHVDEVRQSSWTTSNLWGQGTQVTVSS", 0.0],
  ["A4-H2 (VHH) VHH: VQLQASGGGFVQPGGSLRLSCAASGRSFSINTMGWFRQAPGKEREFVAVVTRGGSTYYADSVKGRFTISRDNSKNTVYLQMNSLRAEDTATYYCHIDEVRQSSWTTSNIWGQGTQVTVSS", 1.0],
  ["A4-H1 (VHH) VHH: VQLVESGGGLVQPGGSLRLSCAASGRSFSINTMGWFRQAPGKGLEAVAIVTRGGSTYYADSVKGRFTISRDNSKNTLYLQMNSLRAEDTAVYYCHIDEVRQSSWTTSNIWGQGTLVTVSS", 1.0]
]}
